molecular target: HuR (Homo sapiens, UniProt Q15717); construct: expressed in transfected cells; host or cells: U251 glioma cells, doxycycline-inducible constructs; assay: cell-based split firefly luciferase-HuR dimerization assay; settings: split luciferase HuR dimerization assay, compounds administered for 6 hours; read-out: HuR IC50
Sequence (Q15717 whole entry): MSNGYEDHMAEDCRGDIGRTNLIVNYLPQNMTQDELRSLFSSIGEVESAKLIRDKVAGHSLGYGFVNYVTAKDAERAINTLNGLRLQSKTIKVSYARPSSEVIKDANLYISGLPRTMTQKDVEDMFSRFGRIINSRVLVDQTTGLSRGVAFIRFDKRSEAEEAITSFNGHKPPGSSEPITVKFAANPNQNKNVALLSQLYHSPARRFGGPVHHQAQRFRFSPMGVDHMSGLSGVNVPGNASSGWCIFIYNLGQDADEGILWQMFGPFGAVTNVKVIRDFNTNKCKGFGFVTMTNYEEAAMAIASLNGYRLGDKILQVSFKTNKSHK
pIC50: −log10 of the molar value.
readout_type: pIC50

Given item CCCN(C)c1ccc2ncc(-c3ccc4c(C)nn(C)c4c3)n2n1 [Compound 36] , the value recorded as its pIC50 is < 4.30

Given item CCCN(C)c1ccc2ncc(-c3cccc4cnccc34)n2n1 [Compound 17] , the value recorded as its pIC50 is < 4.30

Given item CS(=O)(=O)c1ccc(-c2cnc3ccc(NC4CCOCC4)nn23)cc1 [Compound 6] , the value recorded as its pIC50 is < 4.52
